# tested_target: Cytochrome P450 2C9 (Homo sapiens) (UniProt P11712)
# Sequence (P11712 whole entry, looked up): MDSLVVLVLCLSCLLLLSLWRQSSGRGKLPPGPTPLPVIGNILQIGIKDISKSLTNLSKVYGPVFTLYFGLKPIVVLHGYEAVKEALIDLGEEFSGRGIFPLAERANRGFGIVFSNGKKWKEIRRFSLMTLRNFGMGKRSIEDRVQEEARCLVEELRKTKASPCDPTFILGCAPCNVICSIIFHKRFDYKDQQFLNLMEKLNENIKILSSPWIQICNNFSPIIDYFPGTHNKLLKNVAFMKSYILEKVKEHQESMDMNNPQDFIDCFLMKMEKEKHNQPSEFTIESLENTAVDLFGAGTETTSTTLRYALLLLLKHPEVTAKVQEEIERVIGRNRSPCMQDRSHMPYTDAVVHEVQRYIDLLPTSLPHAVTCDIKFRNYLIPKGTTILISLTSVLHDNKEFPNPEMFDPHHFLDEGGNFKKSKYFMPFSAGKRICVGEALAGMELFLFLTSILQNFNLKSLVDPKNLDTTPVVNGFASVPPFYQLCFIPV
# assay_overview: Cytochrome P450 family 2 subfamily C member 9 (CYP2C9) small molecule antagonists: luciferase biochemical (cell-free) qHTS assay (AID 1645842); note: nearly all actives have a fitted effect of over 55% in size
# measurement_setup: P450-Glo CYP2C9 enzyme assay, luciferin luminescence; series mostly up to 57.4 µM
Results filed as inconclusive are left out. The source made the active and inactive calls. Calls come from the whole dose curve; as a rule, active = well fitted inhibition curve with a large enough effect in the repeat runs; inconclusive = weak or mixed curves; inactive = no such curve, though single readings can be large or run the other way.
Pick one: 1 (active), 0 (inactive)

INSERT INTO measurements (molecule, assigned_class) VALUES
  ('C#C[C@]1(O)CC[C@H]2[C@@H]3CCC4=CC(=O)CC[C@@H]4[C@H]3CC[C@@]21CC', 1),
  ('CC(C)[N+](C)(C)CC(O)COc1cccc2ccccc12 (stereo unspecified)', 0),
  ('Cc1ccc(-c2ncc(Cl)cc2-c2ccc(S(C)(=O)=O)cc2)cn1', 0),
  ('CC(C)(Cc1c[nH]c2ccccc12)NCC(O)COc1ccccc1C#N (stereo unspecified)', 0),
  ('N/C(=N\N=C\c1ccc(Cl)cc1)N/N=C/c1ccc(Cl)cc1', 1);

query: Look up the recorded call for O=C(O)Cc1csc(-c2ccc(Cl)cc2)n1 in this test.
result: 0

query: Look up the recorded call for O=C(O)CCNC(=O)c1ccccc1 in this test.
result: 0

query: Look up the recorded call for CC(=O)O[C@H]1C[C@@H]2CC[C@@H]3[C@H](CC[C@@]4(C)[C@H]3C[C@H]([N+]3(C)CCCCC3)[C@@H]4OC(C)=O)[C@@]2(C)C[C@@H]1N1CCCCC1 in this test.
result: 0

query: Look up the recorded call for OC1C(O)C(O)C(O)C(O)C1O (stereo unspecified) in this test.
result: 0

query: Look up the recorded call for CCCCNC(=O)NS(=O)(=O)c1ccc(N)cc1 in this test.
result: 0

query: Look up the recorded call for FC(F)(F)C(F)(F)C(F)(F)C(F)(F)C(F)(F)C(F)(F)C(F)(F)C(F)(F)Br in this test.
result: 0
